The origin of these recorded values is patent US20050060764A1.

Hi there, I'd appreciate the recorded % INHIB (inhibition of rat RANKL mRNA levels) for every entry that follows.
tested on: rat RANKL mRNA; assay: Antisense inhibition of rat RANKL mRNA levels in UMR-106 cells, quantitative real-time PCR (Table 3); type: cell-based; parameters: concentration or dose not given beside the values; conditions: averages from three experiments
Strand notation (5' to 3'): a small letter for the sugar, then the base; units joined by * are phosphorothioate-linked, units joined directly phosphodiester-linked; [ ] holds rarer units or linkages, { } end groups; capitals alone tell only the bases. e = 2'-O-(2-methoxyethyl) (MOE); [5mC] = 5-methylcytosine; d = 2'-deoxy (DNA)
State the answer as a number, implicitly in %.

Would you mind telling me what % INHIB (inhibition of rat RANKL mRNA levels) value was observed for 286625 (antisense eG*e[5mC]*eG*eT*eA*d[5mC]*dA*dG*dG*dT*dA*dA*dT*dA*dG*eA*eA*eG*e[5mC]*e[5mC]) [compound 286625] ?
50

Would you mind telling me what % INHIB (inhibition of rat RANKL mRNA levels) value was observed for 286594 (antisense eT*e[5mC]*e[5mC]*eA*eT*d[5mC]*dT*dG*d[5mC]*dG*d[5mC]*dT*d[5mC]*dG*dA*eA*eA*eG*eT*eA) [compound 286594] ?
35

Would you mind telling me what % INHIB (inhibition of rat RANKL mRNA levels) value was observed for 286649 (antisense eT*eA*eG*eA*e[5mC]*d[5mC]*d[5mC]*dA*dG*dA*dG*dA*d[5mC]*dT*dA*eT*eG*eT*eA*eT) [compound 286649] ?
25
